# Tested on: SF-295
# EXPERIMENT DESCRIPTION: NCI tumour cell line growth inhibition, 48 h
Active and inactive are the calls of the source. Cut-off read from the data, not from the text of the source: active = GI50 up to about 1.1 µM and inactive = higher.
Outcomes: YES for active, NO for inactive

>>> category_label("Nc1nc(SCCNC(=O)CCc2ccc(O)c(I)c2)nc2c1ncn2C1OC(CO)C(O)C1O (stereo not given)")
"NO"
>>> category_label("C=C1C(=O)OC2C=C(CCC(C)=O)C(C)C(OC(C)=O)CC12 (stereo not given)")
"NO"
>>> category_label("COc1ccc(-c2csc(-n3c(-c4ccccc4)nc4c(Br)cc(Br)cc4c3=O)n2)cc1")
"NO"
>>> category_label("O=S(=O)(c1ccccc1)C(c1ccc2ccccc2n1)S(=O)(=O)c1ccccc1")
"NO"
>>> category_label("COc1cc(CC2C(=O)OCC2[C@@H](OC(C)=O)c2ccc3c(c2)OCO3)c(Br)c(OC)c1OC (stereo not given in full)")
"NO"
>>> category_label("CCCCCCCCCCOC(=O)NCCC")
"NO"
>>> category_label("CC(NS(=O)(=O)c1ccc(Cl)cc1)C(=O)O (stereo not given)")
"NO"
>>> category_label("O=C1C(=Cc2cccs2)C(=O)N(CCc2ccccc2)S(=O)(=O)N1CCc1ccccc1")
"NO"
>>> category_label("C=CCC1(CN(C)C)CC/C(=C\\c2ccc(Cl)cc2)C1=O (stereo not given)")
"NO"
>>> category_label("CCC(=O)Nc1cccc(NC(=O)c2c(Cl)c(Cl)c(Cl)c(Cl)c2-c2nc3ccccc3[nH]2)c1")
"YES"

* * *

# Test system: M14
# EXPERIMENT DESCRIPTION: NCI tumour cell line growth inhibition, 48 h
Active and inactive are the calls of the source. No stated cut-off is given here; in the data, active = GI50 up to about 1.1 µM and inactive = higher. Square brackets hold non-standard residues; d marks the D form. Peptide text beside a SMILES is read from it. * marks the point of attachment. ξ: configuration not given here. Propanoyl(3-(4-MeO-Ph)) = COc1ccc(CCC(=O)*)cc1; Thr(3ξ) = CC(O)[C@H](N)C(=O)O; dNMeL = CN[C@H](CC(C)C)C(=O)O; ξLac = CC(O)C(=O)O
Outcomes: true (active), false (inactive)

>>> category_label("Cc1ccc(/C=N/NS(=O)(=O)c2ccccc2)cc1")
"false"
>>> category_label("O=[N+]([O-])c1ccc(S(=O)(=O)Cc2ccccc2)c([N+](=O)[O-])c1")
"false"
>>> category_label("Nc1nc(NCCCO)cc(=O)[nH]1")
"false"
>>> category_label("c1ccc2/c3[nH]/c(c2c1)=N\\c1ccc(cc1)-c1nc2cc(ccc2o1)/N=c1/[nH]/c(c2ccccc12)=N/c1ccc2nc(oc2c1)-c1ccc(cc1)\\N=3")
"false"
>>> category_label("O=C(O)CCSCc1ccccc1")
"false"
>>> category_label("Cc1[nH]c2ccccc2c1C(=O)/C=C/c1ccccc1O")
"false"
>>> category_label("O=C(CCc1cc(O)ccc1O)OCCc1ccccc1")
"false"
>>> category_label("O=C1c2ccccc2C(=O)c2c(/C=C\\N3CCCCC3)ccnc21")
"true"
>>> category_label("CC(=O)N1CCOC12N=NC(C)(C)O2 (stereo unspecified)")
"false"
>>> category_label("C[C@]12CC(c3ccccc3O1)C(C#N)C(=O)N2 (stereo partly specified)")
"false"
>>> category_label("Cc1cc(C)nc(NS(=O)(=O)c2ccc(NC(=O)c3cccc4cc5ccccc5nc34)cc2)n1")
"false"
>>> category_label("O=[N+]([O-])c1ccc(-c2noc(-c3ccccc3)c2C2=NCCN2)cc1")
"false"
>>> category_label("COc1ccc(-c2csc(-n3c(-c4ccccc4)nc4c(Br)cc(Br)cc4c3=O)n2)cc1")
"false"
>>> category_label("O=[N+]([O-])/C=C\\c1c[nH]c2ccc(OCc3ccccc3)cc12")
"false"
>>> category_label("COP1(=O)OCc2cnccc2O1 (stereo unspecified)")
"false"
>>> category_label("Cc1nc2c(N3CCCC3)nc(N3CCNCC3)nc2nc1NCc1ccccc1")
"false"
>>> category_label("CCOC(=O)C(=Cc1[nH]c2ccccc2c1-c1c[nH]c2ccccc12)C(=O)OCC")
"false"
>>> category_label("O=C(Cc1ccccc1)NCCCN(CCCCN(CCCNC(=O)Cc1ccccc1)C(=O)OCc1ccccc1)C(=O)OCc1ccccc1")
"false"
>>> category_label("O=C(N/C=C/C=C/Sc1ccccc1)OCc1ccccc1")
"false"
>>> category_label("COC1C=COC2(C)Oc3c(C)c(O)c4c(O)c(c(C5SCCS5)c(O)c4c3C2=O)NC(=O)C(C)=C/C=C\\C(C)C2OC(C)(C)OC(C2C)C(C)C(OC(C)=O)C1C (stereo unspecified)")
"false"
>>> category_label("c1ccc([S+](c2ccccc2)c2ccc(Sc3ccc([S+](c4ccccc4)c4ccccc4)cc3)cc2)cc1")
"false"
>>> category_label("N#CC(NNC(=O)c1ccccc1O)c1cccc(O)c1 (stereo unspecified)")
"false"
>>> category_label("COc1cc([C@@H]2c3cc4c(cc3[C@@H](NC(=O)c3ccccc3)C3COC(=O)[C@@H]32)OCO4)cc(OC)c1O (stereo partly specified)")
"false"
>>> category_label("O=C(O)c1ccc(Nc2nc3ccc(C(F)(F)F)cc3nc2-c2ccccc2)cc1")
"false"
>>> category_label("COc1nc(Cl)c(Cl)c(Cl)n1.COc1nc(Cl)nc(Cl)c1Cl")
"false"
>>> category_label("N#Cc1c(N2CCCC2)ncn(Cc2ccccc2)c1=O")
"false"
>>> category_label("COc1ccccc1NC(=O)CC(=O)N1N=C(C)C(/N=N/c2ccc(C(=O)O)cc2)C1=O (stereo unspecified)")
"false"
>>> category_label("O=C1C=CC2(C=C1)CCNC1=C2C(=O)c2ccccc2C1=O")
"false"
>>> category_label("CO[C@]12C[C@H](CNC(=O)c3ccc[nH]3)O[C@H]1NC(=O)N2")
"false"
>>> category_label("NC(=O)COc1ccc(Br)cc1Br")
"false"
>>> category_label("C=CCC1(CN(C)C)CC/C(=C\\c2ccc(Cl)cc2)C1=O (stereo unspecified)")
"false"
>>> category_label("O=C(N(O)c1ccccc1Cl)C(O)(c1ccccc1)c1ccccc1")
"false"
>>> category_label("Cc1oc2c(C)c3oc(=O)cc(C)c3cc2c1CNC(=O)[C@@H]1OCCOCCOCCOCCOCCOC1C(=O)O (stereo partly specified)")
"false"
>>> category_label("CC1(C)C(O)C[C@@H](O)[C@@]2(C)C1CC[C@]1(C)C2C[C@@H](O)[C@@H]2C([C@@]3(C)CC[C@@H](C(C)(C)O)O3)CCC21C (stereo partly specified)")
"false"
>>> category_label("Cc1[nH]c(=O)[nH]c(=O)c1N(CCF)CCCl")
"false"
>>> category_label("COC(=O)[C@@H](NC(=O)[C@@H](CC(C)C)N(C)C(=O)[C@@H]1CCCN1C(=O)C(C)O)C(C)OC(=O)CCc1ccc(OC)cc1 (stereo partly specified) (H-[ξLac]P[dNMeL][Thr(3ξ)](Propanoyl(3-(4-MeO-Ph)))-OMe)")
"false"
>>> category_label("CCc1cc2c(c3c1CCCC3=O)CC1(Cc3ccc(C(=O)OC)cc3C1)C2 (stereo unspecified)")
"false"
>>> category_label("O=C(Nc1ccccc1C(=O)Nc1nccs1)c1ccccc1")
"false"
>>> category_label("O=C(O)CSc1ccccc1C(=O)O")
"false"
>>> category_label("C[C@]12CC[C@H](OCCC#N)CC1=CC[C@@H]1C2CC[C@]2(C)/C(=N/OCCC#N)CCC12 (stereo partly specified)")
"false"
>>> category_label("COc1cccc(/C=C2\\CCCCCC2=O)c1")
"false"

* * *

# Test system: LOX IMVI
# EXPERIMENT DESCRIPTION: NCI tumour cell line growth inhibition, 48 h
Calls of active or inactive are those of the source. Cut-off read from the data, not from the text of the source: active = GI50 up to about 1.1 µM and inactive = higher.
The entries below are paired with their reported GI50.
PROPERTY MEASURED: GI50

>>> observed("COC(=O)C#Cc1cccc(OC)c1OC")
"33.7 µM (inactive)"
>>> observed("O=C(/C=C1\\N=C(c2ccccc2)N(c2nc3ccc(Sc4ccccc4)cc3[nH]2)C1=O)/C=C/c1ccccc1")
"17.4 µM (inactive)"
>>> observed("O=c1[nH]c2c(S)nc(O)nc2n1-c1ccccc1")
"> 100 µM (inactive)"
>>> observed("COc1cc2nncc(Sc3cnnc4ccccc34)c2cc1OC")
"23.3 µM (inactive)"
>>> observed("CC(=O)N1CCOC12N=NC(C)(C)O2 (stereo not given)")
"> 100 µM (inactive)"
>>> observed("CC(=O)Nc1nc(O)c2nc(C=O)cnc2n1")
"> 100 µM (inactive)"
>>> observed("c1cc(-c2cn3ccsc3n2)ccn1")
"> 61 µM (inactive)"
>>> observed("CCOc1ccc(/C=C2/C(=O)N/C(=N\\C(C)=O)N2C)cc1")
"> 100 µM (inactive)"
>>> observed("COc1ccc(/C=C2\\CCC(C)C3=C2N=c2s/c(=C/c4cccc(Br)c4)c(=O)n2C3c2ccc(OC)c(OC)c2)cc1OC (stereo not given)")
"> 100 µM (inactive)"
>>> observed("CC(C)(C)n1c(=O)n2n(c1=O)C1c3cccc4cccc(c34)C2C2c3cccc4cccc(c34)C1n1c(=O)n(C(C)(C)C)c(=O)n12")
"42.8 µM (inactive)"
